- target entity: recombinant human CL receptor/RAMP1 (Homo sapiens (Human), UniProt O60894+Q16602)
- Sequence (Q16602 23-461): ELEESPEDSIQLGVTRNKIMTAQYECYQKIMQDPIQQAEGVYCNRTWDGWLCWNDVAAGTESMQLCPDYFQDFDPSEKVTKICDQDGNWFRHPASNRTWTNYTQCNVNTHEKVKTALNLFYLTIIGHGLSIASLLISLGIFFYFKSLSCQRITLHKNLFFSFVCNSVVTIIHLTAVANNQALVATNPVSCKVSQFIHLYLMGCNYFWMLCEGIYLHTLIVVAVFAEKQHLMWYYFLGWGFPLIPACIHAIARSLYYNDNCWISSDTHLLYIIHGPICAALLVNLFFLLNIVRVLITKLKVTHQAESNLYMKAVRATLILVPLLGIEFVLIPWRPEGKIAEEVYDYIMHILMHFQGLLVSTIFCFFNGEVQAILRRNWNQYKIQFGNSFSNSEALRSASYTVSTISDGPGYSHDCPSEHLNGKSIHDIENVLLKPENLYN
- Sequence (O60894 27-148): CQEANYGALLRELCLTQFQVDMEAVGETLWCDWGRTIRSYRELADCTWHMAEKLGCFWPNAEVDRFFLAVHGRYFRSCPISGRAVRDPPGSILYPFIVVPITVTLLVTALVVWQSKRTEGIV
- experiment description: Recombinant receptor binding assay (125I-hCGRP displacement, membranes of HEK 293 cells)
- stated conditions: membranes of HEK 293 cells expressing human CL receptor/RAMP1
Exercise: for every item that follows, state its recorded pKi.
Reminder that pKi is minus the log10 of a molar concentration.

Field pKi (entry CC(C)N1C(=O)N(Cc2cnc3cc4c(cc3c2)C[C@@]2(C4)C(=O)Nc3ncccc32)C2(CCCc3ccccc32)C1=O (stereo partly shown) ) reads 10.24

Field pKi (entry `O=C1N(Cc2ccc3nc4c(cc3c2)C[C@@]2(C4)C(=O)Nc3ncccc32)[C@H](c2cc(F)cc(F)c2)CCNC12CCCC2` ) reads 9.05

Field pKi (entry `CC(C)N1C(=O)N(Cc2cnc3cc4c(cc3c2)C[C@@]2(C4)C(=O)Nc3ncccc32)C2(CCCCCC2)C1=O` ) reads 9.47

Field pKi (entry O=C1NCCN(Cc2cnc3cc4c(cc3c2)C[C@@]2(C4)C(=O)Nc3ncccc32)C1c1ccc(F)cc1 (stereo partly shown) ) reads 7.24

###

- target entity: recombinant human CL receptor/RAMP1 (Homo sapiens (Human), UniProt O60894+Q16602)
- experiment description: Recombinant receptor binding assay (125I-hCGRP displacement, membranes of HEK 293 cells)
- stated conditions: membranes of HEK 293 cells expressing human CL receptor/RAMP1
property label: log10 of Ki (log10 of the value in nM)
Transform log10 | Measure Ki | Unit nM

The compound `O=C1N(Cc2cnc3cc4c(cc3c2)C[C@@]2(C4)C(=O)Nc3ncccc32)C(c2ccccc2Cl)=NC12CCCC2` on recombinant human CL receptor/RAMP1 (Homo sapiens (Human), UniProt O60894+Q16602): log10 of Ki was 0.11

The compound `CN1C[C@@](C)(c2cc(F)cc(F)c2)N(Cc2cnc3cc4c(cc3c2)C[C@@]2(C4)C(=O)Nc3ncccc32)C(=O)C12CCCC2` on recombinant human CL receptor/RAMP1 (Homo sapiens (Human), UniProt O60894+Q16602): log10 of Ki was -1.21

The compound `O=C1N(Cc2cnc3cc4c(cc3c2)C[C@@]2(C4)C(=O)Nc3ncccc32)[C@H](c2cc(F)cc(F)c2)CCNC12CCCC2` on recombinant human CL receptor/RAMP1 (Homo sapiens (Human), UniProt O60894+Q16602): log10 of Ki was -0.31

The compound CC(C)N1C(=O)N(Cc2cnc3cc4c(cc3c2)C[C@@]2(C4)C(=O)Nc3ncccc32)C(C)(c2ccccc2)C1=O (stereo partly drawn) on recombinant human CL receptor/RAMP1 (Homo sapiens (Human), UniProt O60894+Q16602): log10 of Ki was -0.55

The compound `O=C1N(Cc2cnc3cc4c(cc3c2)C[C@@]2(C4)C(=O)Nc3ncccc32)[C@H](c2cc(F)cc(F)c2)CNC12CCCC2` on recombinant human CL receptor/RAMP1 (Homo sapiens (Human), UniProt O60894+Q16602): log10 of Ki was -0.85

The compound `O=C1N(Cc2cnc3cc4c(cc3c2)C[C@@]2(C4)C(=O)Nc3ncccc32)[C@H](c2cc(F)cc(F)c2)CCC12CCCC2` on recombinant human CL receptor/RAMP1 (Homo sapiens (Human), UniProt O60894+Q16602): log10 of Ki was -0.11
